# MEASURED ON: UniProtKB P16662
# Sequence (P16662 24-529): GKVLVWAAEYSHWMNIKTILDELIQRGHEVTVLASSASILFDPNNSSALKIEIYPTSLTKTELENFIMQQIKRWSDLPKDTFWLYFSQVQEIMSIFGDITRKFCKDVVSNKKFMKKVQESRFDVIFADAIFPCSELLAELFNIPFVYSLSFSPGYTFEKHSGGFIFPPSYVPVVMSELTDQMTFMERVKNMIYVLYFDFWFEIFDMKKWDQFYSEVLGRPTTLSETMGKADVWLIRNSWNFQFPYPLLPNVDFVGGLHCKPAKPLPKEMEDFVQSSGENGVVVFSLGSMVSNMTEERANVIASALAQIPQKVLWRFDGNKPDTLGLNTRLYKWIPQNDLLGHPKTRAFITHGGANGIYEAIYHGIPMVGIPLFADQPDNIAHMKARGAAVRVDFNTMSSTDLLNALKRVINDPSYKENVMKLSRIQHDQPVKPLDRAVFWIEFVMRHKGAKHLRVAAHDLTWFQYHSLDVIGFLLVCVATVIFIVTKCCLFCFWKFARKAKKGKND
# Format: biochemical
# SETUP CONDITIONS: human, microsomes from UGT2B7-overexpressing HEK293 cells, pH 7.4, probe 3HC (30 mM), 3HC-Gluc formation
MEASURED PARAMETER: inhibition at 100 μM

[[record]]
compound_smiles = "C=C(C)[C@@H]1CCC(C)=C[C@H]1c1c(O)cc(CCCCC)cc1O"
endpoint_result = "> 50%"


---

# MEASURED ON: UniProt P11509
# Sequence (P11509 1-494): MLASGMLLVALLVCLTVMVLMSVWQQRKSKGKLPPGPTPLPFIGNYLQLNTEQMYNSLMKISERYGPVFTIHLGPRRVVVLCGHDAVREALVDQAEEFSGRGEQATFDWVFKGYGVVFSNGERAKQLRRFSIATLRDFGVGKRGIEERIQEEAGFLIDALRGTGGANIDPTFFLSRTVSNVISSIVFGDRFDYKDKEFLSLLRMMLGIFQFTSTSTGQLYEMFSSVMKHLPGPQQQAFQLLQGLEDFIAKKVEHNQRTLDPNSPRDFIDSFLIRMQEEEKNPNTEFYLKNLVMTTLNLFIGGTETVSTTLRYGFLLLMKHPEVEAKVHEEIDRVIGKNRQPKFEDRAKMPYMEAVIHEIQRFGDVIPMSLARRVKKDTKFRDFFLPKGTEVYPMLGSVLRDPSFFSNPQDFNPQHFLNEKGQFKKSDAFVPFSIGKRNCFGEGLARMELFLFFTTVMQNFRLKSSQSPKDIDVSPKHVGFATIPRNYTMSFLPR
# Assay type: biochemical
# SETUP CONDITIONS: nornicotine formation; nicotine 50 μM; rec CYP2A6 microsomes
MEASURED PARAMETER: IC50 (nM)

[[record]]
compound = "C=C(C)[C@@H]1CCC(CO)=C[C@H]1c1c(O)cc(CCCCC)cc1O [7-OH-CBD, 7-hydroxy-cannabidiol]"
measured_parameter = "IC50"
result_units = "nM"
endpoint_result = 2100


Data origin, for the record: paper PMC9945182
